src = the Kinase Knowledgebase extract (Sharma et al. 2016)

Consider the following log10(IC50) values measured on EGFR (UniProt P00533).
Sequence (P00533 whole entry, looked up): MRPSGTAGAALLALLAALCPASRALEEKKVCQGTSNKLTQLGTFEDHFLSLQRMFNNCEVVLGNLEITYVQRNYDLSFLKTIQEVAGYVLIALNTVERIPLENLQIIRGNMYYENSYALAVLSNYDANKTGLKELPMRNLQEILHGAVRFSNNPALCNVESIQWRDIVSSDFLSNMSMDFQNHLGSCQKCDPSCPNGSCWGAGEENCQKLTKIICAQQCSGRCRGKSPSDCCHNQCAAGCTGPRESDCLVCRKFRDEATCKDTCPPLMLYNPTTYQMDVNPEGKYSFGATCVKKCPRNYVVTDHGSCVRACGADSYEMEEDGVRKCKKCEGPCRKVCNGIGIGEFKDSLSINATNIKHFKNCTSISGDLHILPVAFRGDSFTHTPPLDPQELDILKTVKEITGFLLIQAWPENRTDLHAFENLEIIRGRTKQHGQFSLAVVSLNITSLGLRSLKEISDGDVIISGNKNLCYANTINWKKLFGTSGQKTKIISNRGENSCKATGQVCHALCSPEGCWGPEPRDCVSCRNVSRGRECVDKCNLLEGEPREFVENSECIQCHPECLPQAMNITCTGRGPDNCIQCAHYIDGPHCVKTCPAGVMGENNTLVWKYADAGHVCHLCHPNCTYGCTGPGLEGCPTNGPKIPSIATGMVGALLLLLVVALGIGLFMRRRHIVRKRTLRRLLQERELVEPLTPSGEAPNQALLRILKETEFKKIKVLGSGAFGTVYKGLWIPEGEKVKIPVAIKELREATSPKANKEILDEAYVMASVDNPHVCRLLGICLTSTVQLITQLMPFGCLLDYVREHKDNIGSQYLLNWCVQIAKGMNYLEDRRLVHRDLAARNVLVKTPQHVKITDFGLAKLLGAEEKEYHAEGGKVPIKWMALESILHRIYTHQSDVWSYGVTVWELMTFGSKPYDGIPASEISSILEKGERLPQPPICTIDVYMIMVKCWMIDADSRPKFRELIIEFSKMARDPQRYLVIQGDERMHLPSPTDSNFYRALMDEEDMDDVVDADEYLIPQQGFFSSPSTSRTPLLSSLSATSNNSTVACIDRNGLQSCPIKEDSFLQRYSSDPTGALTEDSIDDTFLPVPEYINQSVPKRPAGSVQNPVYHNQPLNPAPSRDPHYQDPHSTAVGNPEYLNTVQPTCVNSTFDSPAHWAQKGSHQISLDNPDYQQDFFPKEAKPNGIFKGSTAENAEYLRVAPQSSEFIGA
Please note: log10 values; quantity IC50; unit nM.

CC(=O)c1cccc(NCc2cc(O)ccc2O)c1 :: 3.11
CC(COCc1cc(NCc2cc(O)ccc2O)ccc1O)CC(C)(C)C (stereo not given) :: 4.00
OCc1cc(NCc2cc(O)ccc2O)ccc1O :: 3.30
CC(CC(=O)c1cc(NCc2cc(O)ccc2O)ccc1O)CC(C)(C)C (stereo not given) :: 2.57
Oc1ccc(O)c(CNc2ccc(O)c(C(O)c3ccccc3)c2)c1 (stereo not given) :: 3.11

Task: Look up log10(IC50): CC(C)(C)CC(C)(C)NC(=O)c1cc(NCc2cc(O)ccc2O)ccc1O
Result: 2.34

Task: Look up log10(IC50): CN(Cc1ccccc1)C(=O)c1cc(NCc2cc(O)ccc2O)ccc1O
Result: 2.74

Task: Look up log10(IC50): Oc1ccc(O)c(CNc2ccc(O)c(COCc3ccccc3)c2)c1
Result: 2.90

Task: Look up log10(IC50): Oc1ccc(O)c(CNc2ccc(O)c(C(=S)NCc3ccccc3)c2)c1
Result: 2.18

Task: Look up log10(IC50): O=C(c1ccccc1)c1cc(NCc2cc(O)ccc2O)ccc1O
Result: 2.48

Task: Look up log10(IC50): O=C(CCc1ccccc1)c1cc(NCc2cc(O)ccc2O)ccc1O
Result: 2.20

Task: Look up log10(IC50): COC(=O)[C@H](Cc1ccccc1)NC(=O)c1cc(NCc2cc(O)ccc2O)ccc1O
Result: 2.73
